assay: Pharmacokinetics in rats; assay type: in vivo; conditions: rat, in vivo, IV 2 mg/kg, read-out: Tmax IV
Value Type: Tmax (min)
State the answer as a number, implicitly in min.

Below: 2 compounds and their reported Tmax.
- O=C(NS(=O)(=O)c1ccc(NC[C@H]2COCCO2)c([N+](=O)[O-])c1)c1ccc(N2CCN(CC3=C(c4ccc(Cl)cc4)CC4(CCC4)CC3)CC2)cc1Oc1cnc2[nH]ccc2c1 [Cpd. No. 6]: 4.98
- O=C(NS(=O)(=O)c1ccc(NCC2CCOCC2)c([N+](=O)[O-])c1)c1ccc(N2CCN(CC3=C(c4ccc(Cl)cc4)CC4(CCC4)CC3)CC2)cc1Oc1cnc2[nH]ccc2c1 [Cpd. No. 3]: 4.98

# next compound below
Query block: Looking for the measured Tmax of CC1(C)CCC(CN2CCN(c3ccc(C(=O)NS(=O)(=O)c4ccc(NCC5CCOCC5)c([N+](=O)[O-])c4)c(Oc4cnc5[nH]ccc5c4)c3)CC2)=C(c2ccc(Cl)cc2)C1 [ABT-199, Venetoclax, reference compound] , can you help?
Result block: 4.98
